Cited source for all entries: patent US20100267672A1

- Tested on: human AML cell line, MV4-11
- assay_notes: Anticancer activity in acute myeloid leukemia (AML) animal model
- Format: in vivo, Balb/C nude mice
- measurement_parameters: Mus musculus, iv, 288 h; dose 25 mg/kg, intravenously once a day, five times per week for two weeks; MV4-11 implanted nude mice; Day 12 vs Day 1; read-out: Tumor growth Inhibition Rate
Listing of entries alongside the reported inhibition in vivo at 25 mg/kg.
# number only, unit % dropped from output

IN: Entry "C=CCN1CC(=O)N2[C@@H](Cc3ccc(OP(=O)(O)O)cc3)C(=O)N(Cc3cccc4c(C(=O)C5CC5)cn(CCCC)c34)C[C@@H]2N1C(=O)NCc1ccccc1" has what inhibition in vivo at 25 mg/kg?
OUT: 70

IN: Entry "C=CCN1CC(=O)N2[C@@H](Cc3ccc(OP(=O)(O)O)cc3)C(=O)N(Cc3cccc4c(C(=O)CC(C)(C)C)cn(CCCCCC)c34)C[C@@H]2N1C(=O)NCc1ccccc1" has what inhibition in vivo at 25 mg/kg?
OUT: 80
